# Assayed Target: VR1/TRPV1 receptor (Homo sapiens, UniProt Q8NER1)
# Sequence (Q8NER1 whole entry): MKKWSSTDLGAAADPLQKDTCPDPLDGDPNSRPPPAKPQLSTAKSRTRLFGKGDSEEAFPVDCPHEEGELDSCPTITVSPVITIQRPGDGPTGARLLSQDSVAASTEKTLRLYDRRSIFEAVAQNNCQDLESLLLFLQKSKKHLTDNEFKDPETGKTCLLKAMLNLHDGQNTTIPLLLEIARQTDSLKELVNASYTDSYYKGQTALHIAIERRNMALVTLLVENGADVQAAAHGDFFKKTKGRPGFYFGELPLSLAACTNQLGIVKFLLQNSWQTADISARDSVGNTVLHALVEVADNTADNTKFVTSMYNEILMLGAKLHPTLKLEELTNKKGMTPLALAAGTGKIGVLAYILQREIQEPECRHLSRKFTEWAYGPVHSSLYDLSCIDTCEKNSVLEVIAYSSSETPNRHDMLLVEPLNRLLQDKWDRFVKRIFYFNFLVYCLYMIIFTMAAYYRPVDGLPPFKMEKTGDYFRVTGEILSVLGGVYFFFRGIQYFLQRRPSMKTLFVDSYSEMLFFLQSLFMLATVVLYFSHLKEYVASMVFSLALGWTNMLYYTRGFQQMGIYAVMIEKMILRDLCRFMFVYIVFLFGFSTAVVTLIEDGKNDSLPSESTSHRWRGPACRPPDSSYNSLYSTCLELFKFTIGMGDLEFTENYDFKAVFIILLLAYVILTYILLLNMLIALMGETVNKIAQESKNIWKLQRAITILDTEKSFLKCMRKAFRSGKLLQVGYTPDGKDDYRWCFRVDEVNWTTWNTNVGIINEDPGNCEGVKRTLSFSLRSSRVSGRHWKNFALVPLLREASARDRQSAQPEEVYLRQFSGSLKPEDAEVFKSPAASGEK
# Protocol Summary: IC50 (human) after pH stimulus
# Assay type: cell-based
# Details: Table 2
Answer each item with its documented IC50.
Note: a bare number is incomplete; add the unit.

Query: Supply measured IC50 of CC(C(=O)NCc1ccc(C(F)(F)F)nc1OC1CCCC1)c1ccc(NS(C)(=O)=O)c(F)c1 (centres unmarked) in your reply.
Result: 0.029 µM

Query: Give a short answer stating reported IC50 for CC(C(=O)NCc1ccc(C(C)(C)C)cc1C#N)c1ccc(NS(C)(=O)=O)c(F)c1 (centres unmarked) .
Result: 1.49 µM

Query: Using the record for CC(C(=O)NCc1ccc(C(F)(F)F)nc1N1CCN(Cc2ccccc2)CC1)c1ccc(NS(C)(=O)=O)c(F)c1 (centres unmarked) , state its measured IC50.
Result: 0.634 µM

Query: Please report the measured IC50 for C[C@H](C(=O)NCc1ccc(C(F)(F)F)nc1N1CCCCC1)c1ccc(NS(C)(=O)=O)c(F)c1
Result: 0.064 µM

Query: Output measured IC50 for this item: CC(C(=O)NCc1ccc(C(F)(F)F)nc1OC1CCCCC1)c1ccc(NS(C)(=O)=O)c(F)c1 (centres unmarked)
Result: 0.0434 µM

Query: Identify the reported IC50 for the following entry. CC(C(=O)NCc1ccc(C(F)(F)F)cc1N1CCCCC1)c1ccc(NS(C)(=O)=O)c(F)c1 (centres unmarked)
Result: 0.135 µM

Query: Answer with the recorded IC50 of CC(C(=O)NCc1ccc(C(F)(F)F)nc1N1CCCCC1)c1ccc(NS(C)(=O)=O)c(F)c1 (centres unmarked) only.
Result: 0.218 µM

Query: Supply measured IC50 of CC(C(=O)NCc1ccc(C(F)(F)F)cc1Cl)c1ccc(NS(C)(=O)=O)c(F)c1 (centres unmarked) in your reply.
Result: 1.21 µM
